Would you kindly list autophagy induction for each of these compounds?
- System: U2OS
- assay.explanation: Here: values are normalized to the negative (DMSO; defined as 0% autophagy induction) and positive (250nM Torin1; mTOR inhibitor; defined as maximal inducer of autophagy = 100%) control compounds and represented as % of autophagy induction. […] The impact of autophagy induction on cells is complex and depends on the affected target. As such, the magnitude of a phenotype may not be equally mirrored in the %-value of autophagy induction and vice versa. The dynamics of the induction may indicate the mode of activation: e.g. activation via phosphorylation or a signaling cascade may occur fast, while activation via transcription factors may take considerably longer. […] Of note, treatment concentrations may be sub-optimal for specific compounds, leading to false negative annotations.
- Assay type: functional, Homo sapiens
- settings: Compound Concentration 10 uM, Timepoint 36 hours, Culturing Media DMEM, 1 % Penicillin/Streptomycin, 10% Fetal bovin serum Add-On: No, Screening Media Control DMEM, Screening Media Samples DMEM
Express the result in % but write the number alone.

Data request, read-out autophagy induction, for CNc1nc(NCc2ccc(NS(C)(=O)=O)cc2Cl)cc(-c2ccccn2)n1
36.9575

Do the same for CC1=C2C[C@H]3[C@@H](CC=C4C[C@@H](O)CC[C@@]43C)[C@@H]2CC[C@]12O[C@@H]1C[C@H](C)CN[C@H]1[C@H]2C please
-3.104

Another compound: CCc1cc(C(C)=O)c(O)cc1OCCCCCC(C)(C)c1nn[nH]n1
-8.912

Same read-out for C/C(=N\NC(=O)[C@@H]1C(=O)NC[C@H]1c1ccccc1)c1cccc(Br)c1 ?
-3.458

Note, next up: Cc1nc(C#Cc2ccnc(Cl)c2)c(C)n1-c1ccc(OC(F)(F)F)cc1
11.4393

And O=C(O)C1CN(Cc2ccc(OCc3ccc(Cl)c(Cl)c3)cc2)C1 ?
-1.999

Same for CC(C)Oc1ccccc1C(=O)Nc1ccccc1C(=O)Nc1cccc(S(=O)(=O)C(F)(F)F)c1
13.5851

What do we get for Cc1c(OCc2cccc(-c3ccc(C(=O)O)cc3)c2)cc2c(c1C)C(=O)C(C1CCCC1)C2 (stereo not given) ?
8.617

# repeat for COc1ccc(NS(=O)(=O)c2sc3ccc(Cl)cc3c2C)cc1N1CCNCC1.Cl
-4.691

Now the same for COc1ccnc(N2CCC3(CCCN(Cc4c[nH]c5ccccc45)C3=O)CC2)n1
0.7982

What about this compound? Cc1nc(C(=O)N2CCC[C@H]2Cc2nnc(-c3ccccc3)o2)c(-c2ccccc2F)s1
-0.07108

Also check CCCCCNC(=O)NS(=O)(=O)c1cc([N+](=O)[O-])ccc1NC1CCCCC1
-6.08

Cool, now CCCNS(=O)(=O)Nc1ncnc(OCCOc2ncc(Br)cn2)c1-c1ccc(Br)cc1
17.8738

What do we get for CC(C)C[C@H](NC(=O)N1CCCCCC1)C(=O)N[C@H](Cc1cn(C)c2ccccc12)C(=O)N[C@H](Cc1ccccn1)C(=O)O ?
3.219

Do the same for N#Cc1c[nH]c2c(C(=O)N3CCN(CCc4ccc(F)cc4)CC3)cccc12 please
-6.9473

Here is the next compound: COc1ccc(C2(O)OC(=O)C(c3ccc4c(c3)OCO4)=C2Cc2cc(OC)c(OC)c(OC)c2)cc1 (stereo not given)
-12.3712

And the next one, Cc1csc(NC(=O)c2cc(F)cc(Oc3cncnc3)c2)n1 ?
-2.706

Next compound up: C[C@H](Cc1cc2c(c(C(N)=O)c1)N(CCCO)CC2)NCCOc1ccccc1OCC(F)(F)F
3.208

Moving on to CC(C)(N)C(=O)N[C@H](COCc1ccccc1)C(=O)N1CCC2(CC1)CN(S(C)(=O)=O)c1ccccc12.CS(=O)(=O)O [IBUTAMOREN MESYLATE]
7.197

// next record N#Cc1ccc(NC(=O)Nc2ccccc2Br)c2nn[nH]c12
-3.711

Entry CCCCN(CC)c1nc(C)nc2c1c(C)cn2-c1c(C)cc(C)cc1C.Cl please
3.327

What do you have for Cl.Clc1cccc(COc2cncc(N3CCNCC3)n2)c1 ?
7.428

What about O=C1O[C@]2(CC[C@H](C(=O)Nc3ccn(-c4ccccc4F)n3)CC2)c2cnccc21 ?
0.9374

Repeat for the following compound: CN(C(=O)Cc1ccc(Cl)c(Cl)c1)C(CN1CCCC1)c1cccc(OCC(=O)O)c1.Cl (stereo not given)
0.1565

And what about the compound CN(C)S(=O)(=O)c1ccc(NC(=S)N2CCC(C(O)(c3ccccc3)c3ccccc3)CC2)cc1 ?
-0.5558
